test: Bioavailability and pharmacokinetic studies in beagle dog model; assay type: in vivo; settings: male, beagle, dog, plasma, iv, 5 mg, dogs; intravenous bolus, 5 mg cladribine/animal; individual dogs PM01-PM06; read-out: AUC
propertyMeasured: AUC
Provide a numeric answer, followed by its unit.

*Q* Consider the compound `Nc1nc(Cl)nc2c1ncn2[C@H]1C[C@H](O)[C@@H](CO)O1` and give its measured AUC.
*A* 383 ng·h/mL

====

test: Bioavailability and pharmacokinetic studies in beagle dog model; type: in vivo; conditions: male, beagle, dog, plasma, iv, 5 mg, dogs; intravenous bolus, 5 mg cladribine/animal; individual dogs PM01-PM06; read-out: t½ terminal (converted)
propertyMeasured: half-life (h)
Answer in h, number only, no unit symbol.

*Q* Consider the compound Nc1nc(Cl)nc2c1ncn2[C@H]1C[C@H](O)[C@@H](CO)O1 [cladribine, 2-chloro-2′-deoxyadenosine] and give its measured half-life.
*A* 11
